- Assay setup: 333.15 K; 1000 kPa; Liquid; Vibrating wire viscometry
Decide using viscosity: a value greater than or equal to 0.4 mPa·s is t, a smaller one is f.

| Smi | Class name |
| --- | --- |
| CCCCCCC | f |
| Cc1ccccc1 | f |
| Cc1ccc(C)c(C)c1 | t |
| CCCCCCCCCCCC | t |
| CC(C)CC(C)(C)C | f |

###

- Assay setup: 293.15 K; 40000 kPa; Liquid; Vibrating wire viscometry
Catalogue of compounds with associated viscosity

| Compound | viscosity (mPa·s) |
| --- | --- |
| Cc1ccccc1 [toluene] | 0.7913 |
| CCCCCCC [heptane] | 0.595 |
| CC(C)CC(C)(C)C [2,2,4-trimethylpentane] | 0.7817 |
| CCCCCCCCCCCC [dodecane] | 2.31 |
| Cc1ccc(C)c(C)c1 [1,2,4-trimethylbenzene] | 1.233 |

###

- Assay setup: 353.15 K; 20000 kPa; Liquid; Vibrating wire viscometry
Catalogue of compounds with associated viscosity
Measured endpoint: viscosity (mPa·s)

| Smi | Measured endpoint | Quantity unit | Recorded measurement |
| --- | --- | --- | --- |
| CCCCCCC | viscosity | mPa·s | 0.2957 |
| Cc1ccccc1 | viscosity | mPa·s | 0.3701 |
| Cc1ccc(C)c(C)c1 | viscosity | mPa·s | 0.5283 |
| CCCCCCCCCCCC | viscosity | mPa·s | 0.7819 |
| CC(C)CC(C)(C)C | viscosity | mPa·s | 0.357 |

###

- Assay setup: 353.15 K; 100 kPa; Liquid; Vibrating wire viscometry
Measured endpoint: viscosity (mPa·s)

| Smi | Measured endpoint | Recorded measurement |
| --- | --- | --- |
| CCCCCCCCCCCC | viscosity | 0.6281 |
| CC(C)CC(C)(C)C | viscosity | 0.2738 |
| Cc1ccc(C)c(C)c1 | viscosity | 0.4527 |
| Cc1ccccc1 | viscosity | 0.3163 |
| CCCCCCC | viscosity | 0.2406 |

###

- Assay setup: 333.15 K; 100000 kPa; Liquid; Vibrating wire viscometry
Measured endpoint: viscosity (mPa·s)

| Smi | Recorded measurement |
| --- | --- |
| CCCCCCCCCCCC | 1.994 |
| Cc1ccccc1 | 0.7353 |
| Cc1ccc(C)c(C)c1 | 1.094 |
| CC(C)CC(C)(C)C | 0.8361 |
| CCCCCCC | 0.603 |

###

- Assay setup: 293.15 K; 5000 kPa; Liquid; Vibrating wire viscometry
Numbers after ± are expanded uncertainties.
Catalogue of compounds with associated viscosity

| Compound | viscosity |
| --- | --- |
| CC(C)CC(C)(C)C [2,2,4-trimethylpentane] | 0.5399 ± 0.0099 mPa·s |
| Cc1ccccc1 [toluene] | 0.6152 ± 0.011 mPa·s |
| CCCCCCCCCCCC [dodecane] | 1.586 ± 0.027 mPa·s |
| Cc1ccc(C)c(C)c1 [1,2,4-trimethylbenzene] | 0.9417 ± 0.016 mPa·s |
| CCCCCCC [heptane] | 0.4354 ± 0.0083 mPa·s |

###

Catalogue of compounds with associated viscosity
- Assay setup: 313.15 K; 80000 kPa; Liquid; Vibrating wire viscometry
Numbers after ± are expanded uncertainties.

| Smi | viscosity |
| --- | --- |
| CC(C)CC(C)(C)C | 0.8861 ± 0.015 mPa·s |
| CCCCCCCCCCCC | 2.32 ± 0.038 mPa·s |
| Cc1ccc(C)c(C)c1 | 1.249 ± 0.02 mPa·s |
| CCCCCCC | 0.64 ± 0.011 mPa·s |
| Cc1ccccc1 | 0.8098 ± 0.014 mPa·s |

###

Catalogue of molecules with associated viscosity
- Assay setup: 313.15 K; 10000 kPa; Liquid; Falling or rolling sphere viscometry
Measured endpoint: viscosity (mPa·s)

| Smi | Measured endpoint | Recorded measurement |
| --- | --- | --- |
| CCCCCCC | viscosity | 0.3756 |
| CC(C)CC(C)(C)C | viscosity | 0.4517 |
| Cc1ccc(C)c(C)c1 | viscosity | 0.7531 |
| CCCCCCCCCCCC | viscosity | 1.218 |

###

- Assay setup: 353.15 K; 120000 kPa; Liquid; Vibrating wire viscometry
Catalogue of compounds with associated viscosity

| Compound | viscosity, mPa·s |
| --- | --- |
| CC(C)CC(C)(C)C [2,2,4-trimethylpentane] | 0.8245 |
| CCCCCCCCCCCC [dodecane] | 1.757 |
| Cc1ccccc1 [toluene] | 0.6825 |
| Cc1ccc(C)c(C)c1 [1,2,4-trimethylbenzene] | 0.9515 |
| CCCCCCC [heptane] | 0.5735 |

###

- Assay setup: 353.15 K; 10000 kPa; Liquid; Vibrating wire viscometry
Label condition met when viscosity is strictly below 0.3 mPa·s; otherwise label condition not met.

| Molecule | Class name |
| --- | --- |
| CCCCCCCCCCCC [dodecane] | condition not met |
| CC(C)CC(C)(C)C [2,2,4-trimethylpentane] | condition not met |
| Cc1ccccc1 [toluene] | condition not met |
| Cc1ccc(C)c(C)c1 [1,2,4-trimethylbenzene] | condition not met |
| CCCCCCC [heptane] | condition met |

###

- Assay setup: 333.15 K; 30000 kPa; Liquid; Vibrating wire viscometry
Measured endpoint: viscosity (mPa·s)

| Smi | Recorded measurement |
| --- | --- |
| CC(C)CC(C)(C)C | 0.4705 |
| Cc1ccc(C)c(C)c1 | 0.6942 |
| Cc1ccccc1 | 0.4794 |
| CCCCCCC | 0.3746 |
| CCCCCCCCCCCC | 1.095 |

###

- Assay setup: 333.15 K; 60000 kPa; Liquid; Vibrating wire viscometry
Decide using viscosity: a value greater than or equal to 0.6 mPa·s is 1 (yes), a smaller one is 0 (no).

| Smi | Class name |
| --- | --- |
| Cc1ccc(C)c(C)c1 | 1 (yes) |
| CC(C)CC(C)(C)C | 1 (yes) |
| CCCCCCCCCCCC | 1 (yes) |
| CCCCCCC | 0 (no) |

###

- Assay setup: 293.15 K; 80000 kPa; Liquid; Vibrating wire viscometry
Catalogue of compounds with associated viscosity
Measured endpoint: viscosity (mPa·s)

| Compound | Recorded measurement |
| --- | --- |
| Cc1ccc(C)c(C)c1 [1,2,4-trimethylbenzene] | 1.693 |
| Cc1ccccc1 [toluene] | 1.022 |
| CCCCCCCCCCCC [dodecane] | 3.428 |
| CC(C)CC(C)(C)C [2,2,4-trimethylpentane] | 1.127 |
| CCCCCCC [heptane] | 0.7965 |

###

- Assay setup: 313.15 K; 120000 kPa; Liquid; Vibrating wire viscometry
Catalogue of molecules with associated viscosity

| Smi | viscosity [mPa·s] |
| --- | --- |
| Cc1ccc(C)c(C)c1 | 1.599 |
| CCCCCCC | 0.8176 |
| CC(C)CC(C)(C)C | 1.195 |
| CCCCCCCCCCCC | 3.231 |
| Cc1ccccc1 | 1.009 |

###

Catalogue of compounds with associated viscosity
- Assay setup: 313.15 K; 40000 kPa; Liquid; Vibrating wire viscometry

| Smi | viscosity, mPa·s |
| --- | --- |
| Cc1ccc(C)c(C)c1 | 0.9528 |
| CC(C)CC(C)(C)C | 0.6351 |
| CCCCCCC | 0.4806 |
| Cc1ccccc1 | 0.6239 |
| CCCCCCCCCCCC | 1.625 |

###

- Assay setup: 293.15 K; 20000 kPa; Liquid; Vibrating wire viscometry
Decide using viscosity: a value greater than or equal to 1 mPa·s is fulfilled, a smaller one is not fulfilled.

| Smi | Class name |
| --- | --- |
| CCCCCCC | not fulfilled |
| Cc1ccc(C)c(C)c1 | fulfilled |
| CCCCCCCCCCCC | fulfilled |
| CC(C)CC(C)(C)C | not fulfilled |
| Cc1ccccc1 | not fulfilled |

###

- Assay setup: 353.15 K; 5000 kPa; Liquid; Vibrating wire viscometry
Catalogue of compounds with associated viscosity
Measured endpoint: viscosity (mPa·s)

| Smi | Quantity unit | Recorded measurement |
| --- | --- | --- |
| Cc1ccccc1 | mPa·s | 0.3319 |
| CCCCCCC | mPa·s | 0.2549 |
| CC(C)CC(C)(C)C | mPa·s | 0.2923 |
| CCCCCCCCCCCC | mPa·s | 0.6713 |
| Cc1ccc(C)c(C)c1 | mPa·s | 0.4711 |

###

- Assay setup: 333.15 K; 140000 kPa; Liquid; Vibrating wire viscometry
Label t when viscosity is strictly below 1 mPa·s; otherwise label f.

| Smi | Class name |
| --- | --- |
| CCCCCCC | t |
| Cc1ccccc1 | t |
| CCCCCCCCCCCC | f |
| Cc1ccc(C)c(C)c1 | f |
| CC(C)CC(C)(C)C | f |
